- Test system: NF-κB
- PROCEDURE TEXT: NF-κB inhibition assay (LPS-stimulated), HEK001
- Format: cell-based
- RUN CONDITIONS: Homo sapiens; HEK001, LPS-stimulated, 72 h; read-out: NF-κB Inhibition at 72 h IC50 ± SEM
# Lookup of reported IC50 keyed by entry
MEASUREMENT KIND: IC50 (µM)

| MOLECULE | TARGET UNDER TEST | MEASUREMENT KIND | REPORTED VALUE |
| --- | --- | --- | --- |
| CNC(=O)c1ccccc1NC(=O)/C=C/c1ccc(OC)c(OC)c1 | NF-κB | IC50 | 11.2 |
| O=C(O)c1cc(O)c2ccccc2n1 [Compound 2, 4-hydroxyquinoline-2-carboxylic acid] | NF-κB | IC50 | 35.4 |

----------
- TARGET UNDER TEST: tyrosinase in HMCB cells (Homo sapiens, UniProt P14679)
- Construct: endogenous in cells; host or cells: HMCB cells
- Sequence (P14679 19-529): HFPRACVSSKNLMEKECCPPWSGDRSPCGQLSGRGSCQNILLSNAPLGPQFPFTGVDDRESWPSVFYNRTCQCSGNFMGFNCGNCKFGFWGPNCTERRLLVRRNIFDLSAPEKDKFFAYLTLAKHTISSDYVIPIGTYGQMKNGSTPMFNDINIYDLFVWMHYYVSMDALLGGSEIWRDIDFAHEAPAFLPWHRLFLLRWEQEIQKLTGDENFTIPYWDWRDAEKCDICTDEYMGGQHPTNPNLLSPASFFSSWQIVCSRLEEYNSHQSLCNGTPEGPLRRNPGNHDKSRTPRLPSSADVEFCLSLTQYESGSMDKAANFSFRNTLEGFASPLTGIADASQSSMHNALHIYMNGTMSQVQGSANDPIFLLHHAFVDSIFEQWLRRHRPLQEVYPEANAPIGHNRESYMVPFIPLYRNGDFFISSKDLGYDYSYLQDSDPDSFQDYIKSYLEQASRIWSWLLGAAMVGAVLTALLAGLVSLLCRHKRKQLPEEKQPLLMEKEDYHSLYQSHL
- PROCEDURE TEXT: Cellular tyrosinase assay (L-DOPA as substrate)
- Assay type: cell-based
- RUN CONDITIONS: HMCB cells, L-DOPA as substrate, 12 h; read-out: Tyrosinase inhibitory activity IC50
pIC50: −log10 of the molar value.
MEASUREMENT KIND: pIC50

| MOLECULE | TARGET UNDER TEST | REPORTED VALUE |
| --- | --- | --- |
| CNC(=O)c1ccccc1NC(=O)/C=C/c1ccc(OC)c(OC)c1 [Compound 1] | tyrosinase in HMCB cells (Homo sapiens, UniProt P14679) | 4.85 |
| O=C(O)c1cc(O)c2ccccc2n1 [Compound 2, 4-hydroxyquinoline-2-carboxylic acid] | tyrosinase in HMCB cells (Homo sapiens, UniProt P14679) | 4.47 |

----------
- PROCEDURE TEXT: NR viability assay, THP-1
- Assay type: cell-based, Homo sapiens
- RUN CONDITIONS: human, THP-1, NR assay, 72 h; read-out: Viability CC50
MEASUREMENT KIND: CC50 at 72 h (µM)

| STRUCTURE STRING | MEASUREMENT KIND | REPORTED VALUE |
| --- | --- | --- |
| N#C/C(=C\c1ccc(O)cc1)C(=O)O | CC50 at 72 h | 141 |

----------
- Tested on: NF-κB
- PROCEDURE TEXT: NF-κB inhibition assay, positive control value of the method (cell line not stated)
- Assay type: cell-based
- RUN CONDITIONS: Homo sapiens, equivalent value for the compounds

| MOLECULE | TARGET UNDER TEST | IC50 / µM |
| --- | --- | --- |
| CC1=C(O)C(=O)C=C2C1=CC=C1[C@@]2(C)CC[C@@]2(C)[C@@H]3C[C@](C)(C(=O)O)CC[C@]3(C)CC[C@]12C [Celastrol, reference compound] | NF-κB | 7.41 |

----------
- Test system: Nrf2
- PROCEDURE TEXT: Nrf2 activation assay, THP-1
- Assay type: cell-based
- RUN CONDITIONS: Homo sapiens, THP-1, 72 h; read-out: Activation of Nrf2 production EC50
MEASUREMENT KIND: EC50 (µM)

| COMPOUND | REPORTED VALUE |
| --- | --- |
| CNC(=O)c1ccccc1NC(=O)/C=C/c1ccc(OC)c(OC)c1 | 0.116 |
| O=C(O)c1cc(O)c2ccccc2n1 [Compound 2, 4-hydroxyquinoline-2-carboxylic acid] | 0.49 |

----------
- System: WS1 cell line
- PROCEDURE TEXT: NR viability assay, WS1
- Type: cell-based, Homo sapiens
- RUN CONDITIONS: WS1, NR assay, 72 h
- Source text: The HEK001 (Homo sapiens cutaneous keratinocyte, CCL-2404), WS1 (Homo sapiens cutaneous fibroblast, CRL-1502), HMCB (Homo sapiens cutaneous melanoma, CRL-9607), and THP-1 (Homo sapiens peripheral blood monocyte, TIB-202) cell lines used in this study were obtained from the American Type Culture Collection (ATCC, Manassas, VA, USA). […]
MEASUREMENT KIND: CC50

| STRUCTURE STRING | REPORTED VALUE |
| --- | --- |
| N#C/C(=C\c1ccc(O)cc1)C(=O)O | > 100 µM |

----------
- System: HMCB cell line
- PROCEDURE TEXT: NR viability assay, HMCB
- Format: cell-based, Homo sapiens
- RUN CONDITIONS: HMCB, NR assay, 72 h
- Source text: The HEK001 (Homo sapiens cutaneous keratinocyte, CCL-2404), WS1 (Homo sapiens cutaneous fibroblast, CRL-1502), HMCB (Homo sapiens cutaneous melanoma, CRL-9607), and THP-1 (Homo sapiens peripheral blood monocyte, TIB-202) cell lines used in this study were obtained from the American Type Culture Collection (ATCC, Manassas, VA, USA). […]
MEASUREMENT KIND: CC50 (µM)

| STRUCTURE STRING | MEASUREMENT KIND | REPORTED VALUE |
| --- | --- | --- |
| N#C/C(=C\c1ccc(O)cc1)C(=O)O | CC50 | 98.6 |

----------
- PROCEDURE TEXT: NR viability assay, HMCB
- Assay type: cell-based, Homo sapiens
- RUN CONDITIONS: human, HMCB cells (cutaneous melanoma); HMCB, NR assay, 72 h; read-out: Viability CC50
MEASUREMENT KIND: CC50 at 72 h (µM)

| STRUCTURE STRING | MEASUREMENT KIND | REPORTED VALUE |
| --- | --- | --- |
| CNC(=O)c1ccccc1NC(=O)/C=C/c1ccc(OC)c(OC)c1 | CC50 at 72 h | 69.8 |

----------
- TARGET UNDER TEST: collagenase
- PROCEDURE TEXT: Collagenase inhibitory assay
- RUN CONDITIONS: read-out: Anti-Collagenase IC50
# Lookup of reported IC50 keyed by entry
MEASUREMENT KIND: IC50

| COMPOUND | MEASUREMENT KIND | REPORTED VALUE |
| --- | --- | --- |
| N#C/C(=C\c1ccc(O)cc1)C(=O)O | IC50 | 187 µM |
| CNC(=O)c1ccccc1NC(=O)/C=C/c1ccc(OC)c(OC)c1 | IC50 | 76.6 µM |
| O=C(O)c1cc(O)c2ccccc2n1 [Compound 2, 4-hydroxyquinoline-2-carboxylic acid] | IC50 | 152 µM |

----------
- Tested on: THP-1 cell line
- PROCEDURE TEXT: NR viability assay, THP-1
- Assay type: cell-based, Homo sapiens
- RUN CONDITIONS: human, 72 h
- From the text: The HEK001 (Homo sapiens cutaneous keratinocyte, CCL-2404), WS1 (Homo sapiens cutaneous fibroblast, CRL-1502), HMCB (Homo sapiens cutaneous melanoma, CRL-9607), and THP-1 (Homo sapiens peripheral blood monocyte, TIB-202) cell lines used in this study were obtained from the American Type Culture Collection (ATCC, Manassas, VA, USA). […]

| MOLECULE | CC50 |
| --- | --- |
| O=C(O)c1cc(O)c2ccccc2n1 [Compound 2, 4-hydroxyquinoline-2-carboxylic acid] | > 100 µM |

----------
- PROCEDURE TEXT: NR viability assay, HEK001
- Format: cell-based, Homo sapiens
- RUN CONDITIONS: human; HEK001, NR assay, 72 h; read-out: Viability CC50

| STRUCTURE STRING | CC50 at 72 h |
| --- | --- |
| N#C/C(=C\c1ccc(O)cc1)C(=O)O | 130 µM |

----------
- Test system: HEK001 cell line
- PROCEDURE TEXT: NR viability assay, HEK001
- Format: cell-based, Homo sapiens
- RUN CONDITIONS: HEK001, NR assay, 72 h
MEASUREMENT KIND: CC50

| STRUCTURE STRING | TARGET UNDER TEST | MEASUREMENT KIND | REPORTED VALUE |
| --- | --- | --- | --- |
| N#C/C(=C\c1ccc(O)cc1)C(=O)O | HEK001 cell line | CC50 | > 100 µM |

----------
# Lookup of reported IC50 keyed by entry
- System: melanin production in HMCB cells
- PROCEDURE TEXT: Melanin content assay
- Format: cell-based
- RUN CONDITIONS: Homo sapiens; HMCB cells, 12 h; read-out: Inhibitory activity of melanin production IC50

| MOLECULE | IC50 / µM |
| --- | --- |
| O=c1cc(CO)occ1O [Kojic acid, reference compound] | 16.4 |
| CNC(=O)c1ccccc1NC(=O)/C=C/c1ccc(OC)c(OC)c1 | 22.2 |
| O=C(O)c1cc(O)c2ccccc2n1 [Compound 2, 4-hydroxyquinoline-2-carboxylic acid] | 44.7 |
